biological target: Serine/threonine-protein kinase Chk1 (Homo sapiens, UniProt O14757); assay: Inhibition of human recombinant Chk1
Sequence (O14757 whole entry): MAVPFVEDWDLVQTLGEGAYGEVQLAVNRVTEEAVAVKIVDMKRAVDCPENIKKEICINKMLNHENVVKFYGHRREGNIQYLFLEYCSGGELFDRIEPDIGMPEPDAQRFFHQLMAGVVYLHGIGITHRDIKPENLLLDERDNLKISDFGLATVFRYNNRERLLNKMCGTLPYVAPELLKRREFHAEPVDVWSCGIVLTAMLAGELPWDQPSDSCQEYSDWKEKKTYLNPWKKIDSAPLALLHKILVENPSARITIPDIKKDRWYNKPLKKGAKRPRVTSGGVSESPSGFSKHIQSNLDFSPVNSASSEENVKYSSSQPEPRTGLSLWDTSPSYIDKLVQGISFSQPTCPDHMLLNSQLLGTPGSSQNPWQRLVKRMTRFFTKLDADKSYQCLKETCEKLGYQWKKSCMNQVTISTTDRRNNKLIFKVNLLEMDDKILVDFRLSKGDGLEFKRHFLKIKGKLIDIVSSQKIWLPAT
pIC50: −log10 of the molar value.
Classification field: Y = pIC50 at or over 7; N = pIC50 under 7.

Field: example entries. Status: answers known.
smi: O=C1Nc2ccccc2Nc2cc(-c3ccccc3)ccc21
target_entity: Serine/threonine-protein kinase Chk1 (Homo sapiens, UniProt O14757)
category: N

smi: COc1cc(-c2ccc3c(c2)Nc2ccccc2NC3=O)ccc1[N+](=O)[O-]
target_entity: Serine/threonine-protein kinase Chk1 (Homo sapiens, UniProt O14757)
category: Y

smi: COc1cc(-c2ccc3c(c2)Nc2ccccc2NC3=O)ccc1C#N
target_entity: Serine/threonine-protein kinase Chk1 (Homo sapiens, UniProt O14757)
category: Y

smi: O=c1[nH]c2ccccc2c(=O)c2ccccc12
target_entity: Serine/threonine-protein kinase Chk1 (Homo sapiens, UniProt O14757)
category: N

smi: COc1cc(-c2ccc3c(c2)Nc2ccccc2NC3=O)ccc1C(C)=O
target_entity: Serine/threonine-protein kinase Chk1 (Homo sapiens, UniProt O14757)
category: Y

smi: COc1cccc(-c2ccc3c(c2)Nc2ccccc2NC3=O)c1
target_entity: Serine/threonine-protein kinase Chk1 (Homo sapiens, UniProt O14757)
category: N

smi: CC(=O)c1ccccc1-c1ccc2c(c1)Nc1ccccc1NC2=O
target_entity: Serine/threonine-protein kinase Chk1 (Homo sapiens, UniProt O14757)
category: N

Proceed to the following item.
Request: Quick check, pIC50 >= 7? CC(=O)c1cccc(-c2ccc3c(c2)Nc2ccccc2NC3=O)c1
Response: N

Values were extracted from ChEMBL document CHEMBL1148724.
